Please provide measured pIC50 for the entries that follow.
- study_system: agonist-induced platelet aggregation (Homo sapiens, UniProt P05106+P08514)
- Sequence (P08514 32-1039): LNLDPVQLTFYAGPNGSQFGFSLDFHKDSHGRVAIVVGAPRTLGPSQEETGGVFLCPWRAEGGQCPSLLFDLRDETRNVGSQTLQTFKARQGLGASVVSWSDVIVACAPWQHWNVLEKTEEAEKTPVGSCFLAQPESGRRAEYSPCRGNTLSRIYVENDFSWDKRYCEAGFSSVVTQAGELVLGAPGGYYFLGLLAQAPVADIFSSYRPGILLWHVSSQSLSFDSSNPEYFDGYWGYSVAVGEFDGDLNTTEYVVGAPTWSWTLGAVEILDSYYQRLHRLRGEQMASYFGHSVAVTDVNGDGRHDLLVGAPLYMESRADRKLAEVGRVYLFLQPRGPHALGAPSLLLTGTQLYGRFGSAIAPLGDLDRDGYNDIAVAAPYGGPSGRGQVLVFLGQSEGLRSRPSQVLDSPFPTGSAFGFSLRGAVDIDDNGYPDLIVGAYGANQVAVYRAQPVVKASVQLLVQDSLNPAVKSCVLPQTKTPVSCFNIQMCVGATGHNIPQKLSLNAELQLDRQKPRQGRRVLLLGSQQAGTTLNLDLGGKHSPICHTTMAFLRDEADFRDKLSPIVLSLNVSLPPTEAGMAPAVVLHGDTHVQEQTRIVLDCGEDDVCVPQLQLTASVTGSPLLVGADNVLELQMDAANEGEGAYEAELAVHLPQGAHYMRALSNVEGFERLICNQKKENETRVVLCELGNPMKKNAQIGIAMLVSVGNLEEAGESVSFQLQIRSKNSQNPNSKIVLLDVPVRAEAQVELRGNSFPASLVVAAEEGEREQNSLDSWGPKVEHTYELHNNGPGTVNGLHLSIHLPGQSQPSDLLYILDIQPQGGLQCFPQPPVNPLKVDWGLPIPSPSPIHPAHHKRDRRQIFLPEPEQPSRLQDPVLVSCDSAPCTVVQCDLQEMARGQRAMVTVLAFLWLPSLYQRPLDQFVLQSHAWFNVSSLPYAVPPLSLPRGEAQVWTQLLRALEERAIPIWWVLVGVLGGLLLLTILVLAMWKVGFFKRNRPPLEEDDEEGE
- Sequence (P05106 27-788): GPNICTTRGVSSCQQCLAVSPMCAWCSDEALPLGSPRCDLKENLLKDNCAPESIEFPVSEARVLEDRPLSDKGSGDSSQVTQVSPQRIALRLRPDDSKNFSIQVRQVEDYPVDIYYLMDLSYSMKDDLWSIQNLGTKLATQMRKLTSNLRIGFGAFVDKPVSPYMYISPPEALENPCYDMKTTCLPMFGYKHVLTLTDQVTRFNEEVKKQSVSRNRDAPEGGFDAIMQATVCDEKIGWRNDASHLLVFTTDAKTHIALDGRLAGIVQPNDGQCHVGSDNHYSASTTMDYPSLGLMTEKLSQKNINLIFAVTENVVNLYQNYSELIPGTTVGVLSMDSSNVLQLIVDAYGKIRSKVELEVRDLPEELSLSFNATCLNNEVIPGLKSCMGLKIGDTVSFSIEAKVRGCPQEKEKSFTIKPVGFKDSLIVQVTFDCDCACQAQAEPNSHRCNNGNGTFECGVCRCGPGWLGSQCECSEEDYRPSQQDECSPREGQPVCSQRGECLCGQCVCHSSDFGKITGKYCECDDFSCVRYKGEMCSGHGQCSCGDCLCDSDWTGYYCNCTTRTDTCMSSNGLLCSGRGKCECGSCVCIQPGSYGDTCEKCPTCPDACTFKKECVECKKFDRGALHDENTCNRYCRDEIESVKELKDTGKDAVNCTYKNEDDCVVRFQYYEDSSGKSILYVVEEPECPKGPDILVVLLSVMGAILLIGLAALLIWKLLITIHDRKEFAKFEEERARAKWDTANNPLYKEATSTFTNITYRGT
- test: Platelet Aggregation Assay
- particulars: human PRP; agonist-induced aggregation
- Procedure: Blood was collected into 10 ml citrated Vacutainer tubes.
pIC50: −log10 of the molar value. Non-standard residues stand in square brackets, D forms with d. Residues, ends and D or L forms follow the SMILES beside them. NMeOrn(Me) = CNCCC[C@H](NC)C(=O)O; NMeR = CN[C@@H](CCCNC(=N)N)C(=O)O; dPhg = N[C@@H](C(=O)O)c1ccccc1; 3Amb = NCc1cccc(C(=O)O)c1; dAbu = CC[C@@H](N)C(=O)O

Prompt: What value of pIC50 on agonist-induced platelet aggregation (Homo sapiens, UniProt P05106+P08514) does CC[C@H]1NC(=O)c2cccc(c2)CNC(=O)[C@H](CC(=O)O)NC(=O)CNC(=O)[C@H](CCCNC)N(C)C1=O [Example 89e, cyclo-(D-Abu-di-NMeOrn-Gly-Asp-Mamb)] (cyclo([dAbu][NMeOrn(Me)]GD[3Amb])) have?
Completion: 5.00 to 6.00

Prompt: What value of pIC50 on agonist-induced platelet aggregation (Homo sapiens, UniProt P05106+P08514) does CN1C(=O)[C@@H](Cc2ccccc2)NC(=O)c2cccc(c2)CNC(=O)[C@H](CC(=O)O)NC(=O)CNC(=O)[C@@H]1CCCNC(=N)N [Example 12, cyclo-(D-Phe-NMeArg-Gly-Asp-Mamb)] (cyclo([NMeR]GD[3Amb][dF])) have?
Completion: > 6.00

Prompt: What value of pIC50 on agonist-induced platelet aggregation (Homo sapiens, UniProt P05106+P08514) does CN1C(=O)[C@@H](c2ccccc2)NC(=O)c2cccc(c2)CNC(=O)[C@H](CC(=O)O)NC(=O)CNC(=O)[C@@H]1CCCNC(=N)N [Example 11, cyclo-(D-Phg-NMeArg-Gly-Asp-Mamb)] (cyclo([NMeR]GD[3Amb][dPhg])) have?
Completion: > 6.00

Prompt: What value of pIC50 on agonist-induced platelet aggregation (Homo sapiens, UniProt P05106+P08514) does CC(C)[C@H]1NC(=O)c2ccc3c(c2)C(CCC3)NC(=O)[C@H](CC(=O)O)NC(=O)CNC(=O)[C@H](CCCNC(=N)N)N(C)C1=O (single isomer, unassigned) [Example 89b] have?
Completion: > 6.00

====

- study_system: agonist-induced platelet aggregation (Homo sapiens, UniProt P05106+P08514)
- test: Platelet Aggregation Assay
- particulars: human PRP; agonist-induced aggregation
pIC50: −log10 of the molar value. Starred links: 1 amine or outer side, 2 acyl side, 3 side chain; linkers in the order of their positions; H or OH if unused. Non-standard residues stand in square brackets, D forms with d. Residues, ends and D or L forms follow the SMILES beside them. NMePhe(4-CH2NH2) = CN[C@@H](Cc1ccc(CN)cc1)C(=O)O; X4 = O=C(c1cc(CN[*:1])ccc1Cl)[*:2]; NMeR = CN[C@@H](CCCNC(=N)N)C(=O)O; X8 = O=C(c1cc(CN[*:1])ccc1I)[*:2]; 3Amb = NCc1cccc(C(=O)O)c1; dAbu = CC[C@@H](N)C(=O)O; βAla = NCCC(=O)O; Sar = CNCC(=O)O
measured_attribute: pIC50

Prompt: Fill in: pIC50 of C[C@H]1NC(=O)c2cccc(c2)CNC(=O)[C@H](CC(=O)O)NC(=O)CNC(=O)[C@H](CCCNC(=N)N)N(C)C1=O [Example 2, cyclo-(D-Ala-NMeArg-Gly-Asp-Mamb)] (cyclo([NMeR]GD[3Amb][dA])) is ___
Completion: > 6.00

Prompt: Fill in: pIC50 of CC(C)[C@H]1NC(=O)c2cccc(c2)CNC(=O)[C@H](CC(=O)O)NC(=O)[C@H](C)NC(=O)[C@H](CCCNC(=N)N)N(C)C1=O [Example 58c, cyclo-(D-Val-NMeArg-L-Ala-Asp-Mamb)] (cyclo([3Amb][dV][NMeR]AD)) is ___
Completion: 4.00 to 5.00

Prompt: Fill in: pIC50 of CN1C(=O)[C@@H](CCCCN)NC(=O)c2cccc(c2)CNC(=O)[C@H](CC(=O)O)NC(=O)CNC(=O)[C@@H]1CCCNC(=N)N [Example 13f, cyclo-(D-Lys-NMeArg-Gly-Asp-Mamb)] (cyclo([NMeR]GD[3Amb][dK])) is ___
Completion: > 6.00

Prompt: Fill in: pIC50 of `CC(C)[C@H]1NC(=O)c2cccc(c2)CNC(=O)[C@H](CC(=O)O)NC(=O)CNC(=O)[C@H](CCCNC(=N)N)NC1=O` is ___
Completion: 5.00 to 6.00

Prompt: Fill in: pIC50 of CC[C@H]1NC(=O)c2cccc(c2)CNC(=O)[C@H](CC(=O)O)NC(=O)CNC(=O)[C@H](CCCNC(=N)N)N(C)C1=O [Example 3, cyclo-(D-Abu-NMeArg-Gly-Asp-Mamb)] (cyclo([NMeR]GD[3Amb][dAbu])) is ___
Completion: > 6.00

Prompt: Fill in: pIC50 of C[C@H]1NC(=O)c2cccc(c2)CNC(=O)[C@H](CC(=O)O)NC(=O)CNC(=O)[C@H](CCCNC(=N)N)NC1=O [Example 30, cyclo-(D-Ala-Arg-Gly-Asp-Mamb)] (cyclo(RGD[3Amb][dA])) is ___
Completion: 5.00 to 6.00

Prompt: Fill in: pIC50 of CC[C@H]1NC(=O)c2cc(ccc2I)CNC(=O)[C@H](CC(=O)O)NC(=O)CNC(=O)[C@H](CCCNC(=N)N)N(C)C1=O [Example 100b] (cyclo([NMeR]GD[X8][dAbu])) is ___
Completion: > 6.00

Prompt: Fill in: pIC50 of `CC(C)[C@H]1NC(=O)Cc2cccc(c2)NC(=O)[C@H](CC(=O)O)NC(=O)CNC(=O)[C@H](CCCNC(=N)N)N(C)C1=O` is ___
Completion: > 6.00

Prompt: Fill in: pIC50 of `CC(C)[C@H]1NC(=O)c2ccc(I)c(c2)CNC(=O)[C@H](CC(=O)O)NC(=O)CNC(=O)[C@H](CCCNC(=N)N)N(C)C1=O` is ___
Completion: > 6.00

Prompt: Fill in: pIC50 of CC(C)[C@H]1NC(=O)c2cccc(c2)CNC(=O)C(C)(CC(=O)O)NC(=O)CNC(=O)[C@H](CCCNC(=N)N)N(C)C1=O (single isomer, unassigned) [Example 63, cyclo-(D-Val-NMeArg-Gly-α-MeAsp-Mamb)] is ___
Completion: 5.00 to 6.00

Prompt: Fill in: pIC50 of CC(C)[C@H]1NC(=O)c2cccc(c2)CNC(=O)[C@H](CC(=O)O)NC(=O)CNC(=O)[C@H](Cc2ccc(CN)cc2)N(C)C1=O [Example 40, cyclo-(D-Val-NMeAmf-Gly-Asp-Mamb)] (cyclo([dV][NMePhe(4-CH2NH2)]GD[3Amb])) is ___
Completion: > 6.00

Prompt: Fill in: pIC50 of N=C(N)NCCC[C@@H]1NC(=O)[C@H](Cc2ccccc2)NC(=O)c2cccc(c2)CNC(=O)[C@H](CC(=O)O)NC(=O)CNC1=O [Example 37, cyclo-(Phe-Arg-Gly-Asp-Mamb)] (cyclo(RGD[3Amb]F)) is ___
Completion: 4.00 to 5.00

Prompt: Fill in: pIC50 of CC(C)[C@H]1NC(=O)c2cccc(c2)CNC(=O)[C@H](CC(=O)O)NC(=O)CCNC(=O)[C@H](CCCNC(=N)N)N(C)C1=O [Example 54, cyclo-(D-Val-NMeArg-b-Ala-Asp-Mamb)] (cyclo([3Amb][dV][NMeR][βAla]D)) is ___
Completion: 5.00 to 6.00

Prompt: Fill in: pIC50 of N=C(N)NCCC[C@@H]1NC(=O)[C@@H](Cc2ccccc2)NC(=O)c2cccc(c2)CNC(=O)[C@H](CC(=O)O)NC(=O)CNC1=O [Example 36, cyclo-(D-Phe-Arg-Gly-Asp-Mamb)] (cyclo(RGD[3Amb][dF])) is ___
Completion: 4.00 to 5.00

Prompt: Fill in: pIC50 of CC(C)[C@H]1NC(=O)c2cccc(c2)CNC(=O)[C@@H](CC(=O)O)NC(=O)CNC(=O)[C@H](CCCNC(=N)N)N(C)C1=O [Example 64c, cyclo-(D-Val-NMeArg-Gly-D-Asp-Mamb)] is ___
Completion: 5.00 to 6.00

Prompt: Fill in: pIC50 of `CC(C)[C@H]1NC(=O)c2ccc(Cl)c(c2)CNC(=O)[C@H](CC(=O)O)NC(=O)CNC(=O)[C@H](CCCNC(=N)N)N(C)C1=O` is ___
Completion: > 6.00

Prompt: Fill in: pIC50 of CC[C@H]1NC(=O)c2cc(ccc2Cl)CNC(=O)[C@H](CC(=O)O)NC(=O)CNC(=O)[C@H](CCCNC(=N)N)N(C)C1=O [Example 100a] (cyclo([NMeR]GD[X4][dAbu])) is ___
Completion: > 6.00

Prompt: Fill in: pIC50 of CN1CC(=O)N(C)[C@@H](CCCNC(=N)N)C(=O)NCC(=O)N[C@@H](CC(=O)O)C(=O)NCc2cccc(c2)C1=O [Example 18, cyclo-(NMeGly-NMeArg-Gly-Asp-Mamb)] (cyclo([NMeR]GD[3Amb][Sar])) is ___
Completion: > 6.00
